test system: T-47D breast; experiment: NCI-60 one-dose screen, 48 h (100 = growth as untreated, 0 = no growth, -100 = all killed); conditions: 10 µM unless noted
About 83,000 compounds went through this panel and 20% of them were active in at least one assay; those are over-represented in the sample as a whole.
Endpoint name: growth (%)
Kindly provide the numeric value in % only, without the unit symbol.

Supply recorded growth for N#Cc1c(Br)n(C2OC(CO)C(O)C2O)c2ncnc(N)c12 (stereo not given) here.
9.15

Supply recorded growth for "C[C@]12CC[C@H]3[C@@H](CC[C@]4(O)C[C@@H](O[C@@H]5O[C@H](CO)[C@@H](O[C@@H]6OC[C@@H](O)[C@H](O)[C@H]6O)[C@H](O)[C@H]5O)CC[C@]34C=O)[C@@]1(O)CC[C@@H]2C1=CC(=O)OC1" here.
2.52

Supply recorded growth for "CC(=O)O[C@H](C[C@H](C(C)C)N(C)C(=O)[C@@H](NC(=O)[C@H]1CCCCN1C)C(C)C)c1nc(C(=O)N[C@@H](Cc2ccccc2)C[C@H](C)C(=O)O)c(C(C)C)s1" here.
44

Supply recorded growth for "CC(=O)OC[C@]1(C)C=C2C(=O)[C@](C)(O)C3(CC3)C(C)=C2[C@H]1O" here.
-8.92

Supply recorded growth for "COc1ccc(S(=O)(=O)Nc2c(/C=C\c3cc(OC)c(OC)c(OC)c3)ccc(OC)c2O)cc1OC" here.
100

Supply recorded growth for CC[C@H](C)[C@H](NC(=O)C12C3C4C1C1C2C3C41NC)C(=O)N(C)[C@H](C[C@@H](OC(C)=O)c1nc(C(=O)N[C@@H](Cc2ccccc2)C[C@H](C)C(=O)OC)cs1)C(C)C (stereo not given in full) here.
40.5

Supply recorded growth for "COC(=O)[C@@H](C)C[C@H](Cc1ccccc1)NC(=O)c1csc(CC[C@H](C(C)C)N(C)C(=O)[C@@H](NC(=O)[C@H]2CCCCN2C)C(C)C)n1" here.
56.8

Supply recorded growth for "CC[C@H](C)[C@H](NC(=O)[C@H]1CCCCN1C)C(=O)N(C)[C@H](CC(=O)c1nc(C(=O)N[C@@H](Cc2ccccc2)C[C@H](C)C(=O)O)cs1)C(C)C" here.
64.8

Supply recorded growth for "COC(=O)C12CC(NC(=O)c3csc([C@@H](C[C@H](C(C)C)N(C)C(=O)[C@@H](NC(=O)[C@H]4CCCCN4C)C4CC4)OC(C)=O)n3)(C1)C2" here.
43.4

Supply recorded growth for "CC(C)(N)Cc1ccccc1" here.
107

Supply recorded growth for "C[C@@]12CC[C@@H](O)C[C@@H]1CC[C@H]1[C@H]2CC[C@@]2(C)[C@H](c3ccc(=O)oc3)CC[C@@]12O" here.
-18.1

Supply recorded growth for "COC(=O)[C@@H](C)C[C@H](Cc1ccc2ccccc2c1)NC(=O)c1csc([C@@H](C[C@H](C(C)C)N(C)C(=O)[C@@H](NC(=O)[C@H]2CCCCN2C)C(C)C)OC(C)=O)n1" here.
72.9

Supply recorded growth for "CC[CH2][Sn]([Cl])([Cl])[CH2]CC" here.
-3.16

Supply recorded growth for "[Cl][Hg][n]1c(-c2ccco2)nc2ccccc21" here.
94.6

Supply recorded growth for "CC(C)CCC1(CCCl)C(=O)NC(=O)NC1=O" here.
105

---

system: OVCAR-4 ovarian; assay: NCI-60 one-dose screen, 48 h; conditions: 10 µM unless noted
About 83,000 compounds went through this panel and 20% of them were active in at least one assay; those are over-represented in the sample as a whole. Calls of active or inactive are those of the source. Rule for the calls: active = growth percent below 10; inactive = the rest.
Parameter call: string, one of y for active, n for inactive

For O=C([O][Hg][CH2]C1OCCOC1[CH2][Hg][O]C(=O)c1ccccc1)c1ccccc1 (configuration not stated) , which call appears in the assay record?
y

For "O=C1C(=Cc2cn(Cc3ccccc3)c3ccccc23)C(=O)N(Cc2ccccc2)C(=O)N1Cc1ccccc1" , which call appears in the assay record?
n

For CC(=O)O[C@H](C[C@H](C(C)C)N(C)C(=O)[C@@H](NC(=O)[C@H]1CCCCN1C)C(C)C)c1nc(C(=O)NC2CCC(C(=O)O)CC2)cs1 (some centres not stated) , which call appears in the assay record?
n

For "CC[C@H](C)[C@H](NC(=O)C12CC(NC(C)=O)(C1)C2)C(=O)N(C)[C@H](C[C@@H](OC(C)=O)c1nc(C(=O)N[C@@H](Cc2ccccc2)C[C@H](C)C(=O)OC)cs1)C(C)C" , which call appears in the assay record?
n

For "COc1ccc(S(=O)(=O)N(Cc2ccc3c(c2)C=CC(C)(C)O3)c2ccccc2)cc1OC" , which call appears in the assay record?
n

For "C=CC[Se]C(=O)c1ccccc1OC(C)=O" , which call appears in the assay record?
y

For "CCC(C)(C)[C@H](NC(=O)[C@H]1CCCCN1C)C(=O)N(C)[C@H](C[C@@H](OC(C)=O)c1nc(C(=O)N[C@@H](Cc2ccccc2)C[C@H](C)C(=O)O)cs1)C(C)C" , which call appears in the assay record?
n

For "COC(=O)[C@@H](C)C[C@H](Cc1ccccc1)NC(=O)c1csc([C@@H](C[C@H](C(C)C)N(C)C(=O)[C@@H](NC(=O)[C@H]2CCCCN2C)c2ccc(F)cc2)OC(C)=O)n1" , which call appears in the assay record?
n

For "CCC(=O)Nc1ccc(Cl)c(Cl)c1" , which call appears in the assay record?
n

For "Cn1cc(-c2csc(-c3cn(CCCCN4CCCCC4)c4ccccc34)n2)c2cccnc21" , which call appears in the assay record?
n

For COc1cccc(C=NC(Cc2cnc[nH]2)C(=O)O)c1O (configuration not stated) , which call appears in the assay record?
n

For "CC1(C)[C@H](O)[C@H](F)C[C@@]2(C)Oc3ccc(C(=O)Nc4ccc5c(c4)NC(=O)C54CCN(CCCCC#N)CC4)cc3C[C@H]12" , which call appears in the assay record?
n

For "CC(C)=CCc1c(O)c(C(=O)CC(C)C)c(O)c2c(-c3ccccc3)cc(=O)oc12" , which call appears in the assay record?
n

For "c1ccc(CSC(c2ccccc2)c2ccccc2)cc1" , which call appears in the assay record?
n

For "CC[S][Hg][Cl]" , which call appears in the assay record?
n

For CC(=O)OC1CCC2(C)C(CCC3C2CC(=O)C2(C)C3CC(Sc3ccc(N(CCCl)CCCl)cc3)C2C(C)=O)C1 (configuration not stated) , which call appears in the assay record?
n

For "C#Cc1ccc2c(c1)C(c1ccccc1F)=NCC(=O)N2C" , which call appears in the assay record?
n

---

system: NCI-H226 lung; assay: NCI-60 one-dose screen, 48 h (100 = growth as untreated, 0 = no growth, -100 = all killed); settings: 10 µM unless noted
Compounds without any hit were thinned out: in the full panel of roughly 83,000, 20% have a hit.
Task for the reader: assign each of the following compounds its reported growth.
Kindly provide the numeric value in % only, without the unit symbol.

Supply recorded growth for "COC(=O)C12CC(NC(=O)c3csc([C@@H](C[C@H](C(C)C)N(C)C(=O)[C@@H](NC(=O)[C@H]4CCCCN4C)C(C)C)OC(C)=O)n3)(C1)C2" here.
10.6

Supply recorded growth for "COc1ccc(/C=C\c2cc(OC)c(OC)c(OC)c2)c(NS(=O)(=O)c2ccc(F)cc2)c1O" here.
35.1

Supply recorded growth for "COC(=O)[C@@H](C)C[C@H](Cc1ccc2ccccc2c1)NC(=O)c1csc([C@@H](C[C@H](C(C)C)N(C)C(=O)[C@@H](NC(=O)[C@H]2CCCCN2C)C(C)C)OC(C)=O)n1" here.
80.2

Supply recorded growth for NC(=S)c1cn(C2OC(CO)C(O)C2O)c2ncnc(N)c12 (stereo not drawn) here.
-12.7

Supply recorded growth for "CC(=O)O[C@H](C[C@H](C(C)C)N(C)C(=O)[C@@H](NC(=O)[C@H]1CCCN1C)C(C)C)c1nc(C(=O)N[C@@H](Cc2ccccc2)C[C@H](C)C(=O)O)c(C)s1" here.
54.8

Supply recorded growth for "COC1=CC(=O)O[C@@H](/C=C/c2ccc3c(c2)OCO3)C1" here.
92.8

Supply recorded growth for "CCOC(=O)[C@@H](C)C[C@H](Cc1ccccc1)NC(=O)c1csc([C@@H](C[C@H](C(C)C)N(C)C(=O)[C@H](CC)NC(=O)[C@H]2CCCCN2C)OC(C)=O)n1" here.
65.2

Supply recorded growth for "N#CCCNc1ccccc1" here.
106

Supply recorded growth for COC(=O)C1OC(Oc2ccc(N(CCCl)CCCl)cc2)C(OC(C)=O)C(OC(C)=O)C1OC(C)=O (stereo not drawn) here.
96.7

Supply recorded growth for "COc1ccc(/C=C\c2cc(OC)c(OC)c(OC)c2)cc1OCC(=O)Nc1nc2ccc(F)cc2s1" here.
42.4

Supply recorded growth for "O=c1[nH]c2ccc([N+](=O)[O-])cc2c(=O)o1" here.
108

Supply recorded growth for "CNC(=O)Oc1ccc(C(C)(C)C)cc1OC(=O)NC" here.
93.6

Supply recorded growth for "Fc1ccc(N2COOC3(OOC2)C2CC4CC(C2)CC3C4)cc1" here.
105

Supply recorded growth for "CS(=O)(=O)CCN1CC2CCCC(C2)C1" here.
121

Supply recorded growth for "NC(=Nc1ccccc1)N[N+](=O)[O-]" here.
90.1

Supply recorded growth for "N#C[Se]Cc1cc(-c2ccccc2)n(-c2ccc(S(N)(=O)=O)cc2)n1" here.
-29.1

Supply recorded growth for "COC(=O)[C@]12CCC(C)(C)C[C@H]1[C@H]1C(=O)C[C@@H]3[C@@]4(C)C[C@@]5(CC(C)(C)[C@@H]4CC[C@@]3(C)[C@]1(C)CC2)OO[C@@](C)(C(F)(F)F)O5" here.
86.5

Supply recorded growth for "COc1cccc2c1c(C(=O)c1ccco1)cn2Cc1ccc(F)cc1" here.
96.3

Supply recorded growth for "[Cl][Hg][c]1cc(Br)cc(Br)c1" here.
99.9

Supply recorded growth for "COc1cc(/C=C\c2cc(OC)c(OC)c(OC)c2)cc(N/C=C\C(=O)c2cc(OC)c(OC)c(OC)c2)c1OC" here.
47.2

Supply recorded growth for "ClCCN(CCCl)c1ccc(/C=N/Nc2ncnc3nc[nH]c23)cc1" here.
79

Supply recorded growth for "COC(=O)[C@@H](C)C[C@H](Cc1ccccc1)NC(=O)c1nc([C@@H](C[C@H](C(C)C)N(C)C(=O)[C@@H](NC(=O)[C@H]2CC(=O)CCN2C)C(C)C)OC(C)=O)sc1C(C)C" here.
-25.2

Supply recorded growth for "CCOC(=O)[C@@H](C)C[C@H](Cc1ccccc1)NC(=O)c1csc([C@@H](C[C@H](C(C)C)N(C)C(=O)[C@@H](NC(=O)[C@H]2C[C@H](O)CCN2C)C(C)C)OC(C)=O)n1" here.
-29.5

Supply recorded growth for "N#C[S-].[Au+].c1ccc(CN2[CH-]N(Cc3ccccc3)C(c3ccccc3)=C2c2ccccc2)cc1" here.
24.4

Supply recorded growth for "Nc1ccc2c(c1)oc1ccccc12" here.
93.1

Supply recorded growth for "Nc1ccc2c(c1)Cc1cc(Br)ccc1-2" here.
95.4

Supply recorded growth for "CCCCCCCC[n+]1ccc2ccccc2c1" here.
61.4

Supply recorded growth for CCCCNC(c1ccc(Cl)cc1)C(O)c1ccc(Cl)cc1 (stereo not drawn) here.
65.7

Values were extracted from PubChem BioAssay (NCI).
